Target: Gastrin/cholecystokinin type B receptor (Mus musculus)
Sequence (P56481 whole entry): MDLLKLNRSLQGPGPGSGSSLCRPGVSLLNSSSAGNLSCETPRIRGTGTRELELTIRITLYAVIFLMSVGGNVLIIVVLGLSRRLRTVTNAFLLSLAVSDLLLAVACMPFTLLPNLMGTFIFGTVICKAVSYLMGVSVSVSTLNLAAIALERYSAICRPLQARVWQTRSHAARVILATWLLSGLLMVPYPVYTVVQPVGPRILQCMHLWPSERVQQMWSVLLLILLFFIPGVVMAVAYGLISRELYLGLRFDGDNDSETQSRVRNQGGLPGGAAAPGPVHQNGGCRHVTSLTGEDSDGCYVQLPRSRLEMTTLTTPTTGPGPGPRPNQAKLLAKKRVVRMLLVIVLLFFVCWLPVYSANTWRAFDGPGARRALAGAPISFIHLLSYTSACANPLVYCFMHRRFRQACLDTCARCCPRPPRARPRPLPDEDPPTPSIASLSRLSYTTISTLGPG
Measured log10 IC50 accompanies every entry in the list below.
Units before log transform: nM; reported quantity: IC50; transform: log10.

Known log10 IC50 results, listed for orientation:
INSERT INTO assay_data (entrysmiles, quantitativereadout) VALUES
  ('CN(C)c1cccc(-n2c(NNC(=O)Nc3cccc(C#N)c3)nc3ccccc3c2=O)c1', 1.15),
  ('CCOC(=O)c1cccc(NC(=O)NNc2nc3ccccc3c(=O)n2-c2ccccc2)c1', 2.18),
  ('COC(=O)c1cccc(NC(=O)N[C@@H]2N=C(c3ccccc3)c3ccccc3N(C)C2=O)c1', 0.90),
  ('COc1ccccc1NC(=O)NNc1nc2ccccc2c(=O)n1-c1cccc(OC(C)C)c1', 1.00);

Ask: GET /values?readout=log10 IC50&item= CC(C)Oc1cccc(-n2c(NNC(=O)Nc3cccc(C(=O)O)c3)nc3ccccc3c2=O)c1
Result: 1.46

###

Test: The compound was tested for percent absolute oral bioavailability (%F) in rats and value in parenthesis indicate percent relative standard deviation (% RSD).
Format: ADME, organism-based
Details: rat, in vivo, read-out: F (%RSD)
measuredParameter: bioavailability (%)
Quick reminder: number only, in %, skip the unit.

Ask: Requested field: bioavailability. Item: CN(C)c1cccc(-n2c(NNC(=O)Nc3cccc(C#N)c3)nc3ccccc3c2=O)c1
Result: 22

###

Target: Cholecystokinin receptor type A (Rattus norvegicus) (UniProt P30551)
Sequence (P30551 whole entry): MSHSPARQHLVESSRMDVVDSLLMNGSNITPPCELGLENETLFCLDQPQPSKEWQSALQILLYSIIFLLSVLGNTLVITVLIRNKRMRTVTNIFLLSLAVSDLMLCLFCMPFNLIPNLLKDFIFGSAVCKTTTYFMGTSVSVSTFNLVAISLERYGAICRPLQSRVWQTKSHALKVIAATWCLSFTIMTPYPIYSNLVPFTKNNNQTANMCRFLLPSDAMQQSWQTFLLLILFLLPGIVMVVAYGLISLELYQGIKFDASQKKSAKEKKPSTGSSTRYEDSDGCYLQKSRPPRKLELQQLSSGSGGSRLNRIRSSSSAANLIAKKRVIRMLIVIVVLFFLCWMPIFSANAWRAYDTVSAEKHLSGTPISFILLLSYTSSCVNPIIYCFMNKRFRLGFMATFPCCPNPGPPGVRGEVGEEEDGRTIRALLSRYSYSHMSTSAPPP
Assay: Binding affinity towards Cholecystokinin type A receptor (CCK-A) receptor from rat pancreas using [125I]bolton Hunter CCK-8 as radioligand at a concentration of 10 um
measuredParameter: inhibition (%)
# unit: % | format: bare number

Ask: Suppose we examine the molecule CCOC(=O)c1cccc(NC(=O)NNc2nc3ccccc3c(=O)n2-c2ccccc2)c1 ; what inhibition value has been reported?
Result: 37

Ask: For CCOC(=O)c1ccccc1NC(=O)NNc1nc2ccccc2c(=O)n1-c1cccc(OC(C)C)c1 , what is its reported inhibition?
Result: 22

Ask: Can you look up the measured inhibition of COc1ccc(-n2c(NNC(=O)Nc3cccc(C)c3)nc3ccccc3c2=O)cc1OC for me?
Result: 34

Ask: Need inhibition of CCOC(=O)c1cccc(NC(=O)NNc2nc3ccccc3c(=O)n2-c2ccc(Cl)cc2)c1 , thanks.
Result: 15

Ask: GET /values?readout=inhibition&item= CCOC(=O)c1cccc(NC(=O)NNc2nc3ccccc3c(=O)n2-c2ccc(OC)c(OC)c2)c1
Result: 20
